# Tested on: HMLE_sh_eGFP viability, CellTiter-Glo luminescence, 72 h
# assayInfo: cytotoxicity in HMLE control line with eGFP shRNA, dose response, counter-screen for HMLE_sh_ECad selective toxicity project, cell-based, HMLE_sh_eGFP, luminescence (AID 463074);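 note: counterscreen control line to flag general toxicity for the HMLE_sh_ECad screen; potency for loss of viability as luminescence drops below DMSO wells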
Overview of reported AC50 across a group of compounds:

Recorded results for 3 compounds are shown here.
compound | measurementLabel | valueReported
Cc1ccn2c(Nc3ccccc3)c(-c3ccccn3)nc2c1 | AC50 | 4.57 µM
Cc1ccccc1C(=O)N1CCN(c2ccc(NC(=O)c3ccc([N+](=O)[O-])o3)cc2)CC1 | AC50 | 4.37 µM
O=C(NCCc1c[nH]c2ccccc12)C1CCC(Cn2c(=S)[nH]c3ccccc3c2=O)CC1 (stereo not given) | AC50 | 0.707 µM

Quick one: AC50 for "Oc1c(Cl)cc(Cl)cc1CNc1ccc(Br)cn1" ?
3.68 µM

Quick one: AC50 for "Cc1ccc(/C=C\c2nccc3c2[nH]c2ccccc23)cc1" ?
13.2 µM

Quick one: AC50 for "N#Cc1c(-c2ccccc2)nc(SCc2cccc(Cl)c2)[nH]c1=O" ?
7.69 µM

All figures here come from PubChem BioAssay AID463074.
